- test-target: Mouse ACVR2A (mouse, UniProt P27038 20-135, limits assumed); note: test concentration or dose not given here
- Sequence (P27038 20-135 limits assumed): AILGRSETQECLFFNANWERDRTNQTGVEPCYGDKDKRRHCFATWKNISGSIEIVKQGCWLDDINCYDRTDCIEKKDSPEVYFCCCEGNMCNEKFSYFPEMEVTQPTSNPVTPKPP
- experiment-summary: ELISA
Could you please report measured optical density for the items listed next?
One number for each entry, in OD.

{"binder": "374_H05 (antibody, V domains shown, VH/VL only) VH: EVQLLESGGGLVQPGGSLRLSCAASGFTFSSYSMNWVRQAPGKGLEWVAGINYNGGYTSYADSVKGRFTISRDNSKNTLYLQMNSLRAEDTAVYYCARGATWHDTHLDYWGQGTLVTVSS VL: DIQMTQSPSSLSASVGDRVTITCRASQSILSYVNWYQQKPGKAPKLVIYAATSRASGVPSRFSGSGSGTDFTLTISSLQPEDFATYYCQQSYDNPLTFGGGTKVEIK", "value-units": "OD", "optical density": 3.3}

Hey, can you go through the list below and give me optical density for every item?
1. 366_A07 (antibody, V domains shown, VH/VL only) VH: EVQLLESGGGLVQPGGSLRLSCAASGFTFSSYGMHWVRQAPGKGLEWVASINYNGGYTGYADSVKGRFTISRDNSKNTLYLQMNSLRAEDTAVYYCARSANWHDTALDYWGQGTLVTVSS VL: DIQMTQSPSSLSASVGDRVTITCRASQSIVSYVNWYQQKPGKAPKLVIYAATSRHSGVPSRFSGSGSGTDFTLTISSLQPEDFATYYCQQSYESPLTFGGGTKVEIK
2. 366_B08 (antibody, V domains shown, VH/VL only) VH: EVQLLESGGGLVQPGGSLRLSCAASGFTFDSYGMNWVRQAPGKGLEWVSNINYNGGYKGYADSVKGRFTISRDNSKNTLYLQMNSLRAEDTAVYYCARSANWHDTHLDYWGQGTLVTVSS VL: DIQMTQSPSSLSASVGDRVTITCRASQSIVSYLNWYQQKPGKAPKLLIYAATSRHSGVPSRFSGSGSGTDFTLTISSLQPEDFATYYCQQSYDNPLTFGGGTKVEIK

Response:
1. 2.68
2. 2.38
